testProtocol: Stability of alkylated amino acid in cleaning composition 1 by HPLC-UV peak area vs t=0
Format: physicochemical
conditionsUsed: 8 weeks, 100° F. (38° C.), HPLC-UV peak area relative to t=0
outcomeMeasure: % at t = 8 w (100° F.) (%)

Use these answered entries as a reference point.
• CCCCCCCCCCCCNC(CCCCN)C(=O)O (centres unmarked) = 102
• CCCCCCCCCCCCNC(Cc1ccccc1)C(=O)OCC (centres unmarked) = 74
• CCCCCCCCCCCCNCCCCC(N)C(=O)O (centres unmarked) = 146
• CCCCCCCCCCCCOC(=O)C(N)Cc1c[nH]c2ccccc12 (centres unmarked) = 6
• CCCCCCCCCCCCNC(=O)CN = 59
• CCCCCCCCCCCCNC(CCCNC(=N)N)C(=O)O (centres unmarked) = 100
• CCCCCCCCCCCCNC(=O)C(N)CCCNC(=N)N (centres unmarked) = 81
• CCCCCCCCCCCCOC(=O)C(N)Cc1ccc(O)cc1 (centres unmarked) = 8
• CCCCCCCCCCCCNC(=O)C(N)Cc1ccccc1 (centres unmarked) = 96
• CCCCCCCCCCCCNC(CC(C)C)C(=O)OCC (centres unmarked) = 89

(1) CCCCCCCCCCCC(=O)NC(CCCCN)C(=O)OCC (centres unmarked)
(2) CCCCCCCCCCCCOC(=O)C(N)Cc1ccccc1 (centres unmarked)
(3) CCCCCCCCCCCCNC(Cc1ccc(O)cc1)C(=O)OCC (centres unmarked)
Q: Order the records, beginning with the lowest % at t = 8 w (100° F.) and ending with the highest. The reply should contain the labels ordered as requested.
Result: 2, 1, 3
(2: 12%, 1: 37%, 3: 57%)

Hey, just so you know, these numbers are from patent US20250283017A1.
